experiment: protein stability index of a GFP-peptide fusion (GPS, HEK-293T) (PSI 1-6); higher = more stable; details: treatment: DMSO; c terminus: a fixed tail appended;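 note: 24-mer peptide tiles fused after GFP, lentivirally expressed, FACS-sorted into six equal bins by GFP/DsRed ratio, decoded by Illumina sequencing, PSI is the read-weighted mean bin number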
Readout Label: protein stability index

{"Residues": "NSDLNNLLFCCQCVDVVFYNPDLK [RHOBTB3]", "Test Result": 2.28}
{"Residues": "TDLAQQQGGGNGQQQQAMSFAILR [KCNA4]", "Test Result": 3.96}
{"Residues": "VRNQQSLAVSNMGARSKGQCPEPP [PTPN9]", "Test Result": 4.3}
{"Residues": "GLKLIQIQDNGTGIRKEDLDIVCE [MLH1]", "Test Result": 3.56}
{"Residues": "EAAQVVPDGLGLDEAREEEGDREV [TRIB3]", "Test Result": 5.63}
{"Residues": "SEIEMAKAQRDYELKKAAYDIEVN [FLOT1]", "Test Result": 4.89}
{"Residues": "CDECGKIFSQSSALILHQRIHSGK [ZNF396]", "Test Result": 5.51}
{"Residues": "HGNEVLGRELLLLLVQFVCQEYLA [CPXM2]", "Test Result": 3.11}
{"Residues": "GNTVPAVEPGTPPLDILAQPLEAS [DNAAF3]", "Test Result": 5.19}
{"Residues": "VPAPQPPVTKPLFPSAGQAQAAVQ [ZNF207]", "Test Result": 4.39}
{"Residues": "MAMAVMLYYSNFVLALEERFGVRP [MFSD9]", "Test Result": 3.3}
{"Residues": "GGEEEDEDENIEVVYSKAASVPKV [EIF5]", "Test Result": 5.18}
{"Residues": "PVLRPMDLMVEATPRRVFANAHTY [PPP2R2B]", "Test Result": 2.68}

###

test: protein stability index of a GFP-peptide fusion (GPS, HEK-293T) (PSI 1-6); higher = more stable; details: treatment: MLN4924 1 uM, 8 h; c terminus: a fixed tail appended
Think of 4 as a floor: if protein stability index stands on it or above, it is fulfilled; beneath it, not fulfilled.

{"Residues": "LKPESSQQPGQDALAVKAGHGYDS [ZBED1]", "Group": "fulfilled"}
{"Residues": "LDSSHSPSSLSSSEGSSSSSSSSS [NFE2L1]", "Group": "fulfilled"}
{"Residues": "GGGNARATGMFLQYTVPGTEGVTQ [ZFYVE21]", "Group": "not fulfilled"}
{"Residues": "PYVCHAELNAIMNKNSTDVKGCSM [DCTD]", "Group": "not fulfilled"}
{"Residues": "HGDDLKNTKNEISELTRLIQRIRS [KRT71]", "Group": "not fulfilled"}
{"Residues": "SALAPSVFKQAKDKVSDGVTKSPE [MAP2]", "Group": "fulfilled"}
{"Residues": "VERALQLPREPGDSAQFTKALAII [FEM1A]", "Group": "not fulfilled"}
{"Residues": "YMRYSRKVWDQVKASNPDLKLWEI [SMARCE1]", "Group": "not fulfilled"}
{"Residues": "VGQSLRIKEQEVCKLQEQLEATVK [SASS6]", "Group": "fulfilled"}
{"Residues": "EIRDWRGPQLEGEKDWGLEGYVWR [ZSWIM9]", "Group": "not fulfilled"}
{"Residues": "CRLINEDVNEQVMQVLGPEDLQSI [CEP70]", "Group": "not fulfilled"}
{"Residues": "CREQLDIMNDLSNRVWSISQEPDP [TRIM14]", "Group": "not fulfilled"}
{"Residues": "LVLAAVVAWCYYSVSLRKAERLRA [MYORG]", "Group": "not fulfilled"}
{"Residues": "TALVTVSSEEFEDKWFRKIKDHFC [C8orf76]", "Group": "not fulfilled"}
{"Residues": "LPVRPQTNALIGGPMPMSMPNVMT [CLINT1]", "Group": "not fulfilled"}
{"Residues": "PYDGNSSDPENWDRKLHSRPRKLY [BTBD10]", "Group": "not fulfilled"}
{"Residues": "GSEVVPVISPMYQLHKPLAEGTPR [IKZF1]", "Group": "fulfilled"}
{"Residues": "TLSRPPPAQVPREVLKVQTHLENP [TFE3]", "Group": "fulfilled"}
{"Residues": "NAPKFQAENLDVKINENVAAGMRF [PCDHGA10]", "Group": "not fulfilled"}
{"Residues": "GYCSNQLAAKALLDQKKQDPRVQD [NET1]", "Group": "fulfilled"}
{"Residues": "WKALSEFALQSDLDQPAFQQLVSF [ISL2]", "Group": "not fulfilled"}
{"Residues": "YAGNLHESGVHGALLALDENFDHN [PPFIA4]", "Group": "not fulfilled"}
{"Residues": "RHQSIFKSNGFFHGISIPEPEDME [CDKL4]", "Group": "not fulfilled"}
{"Residues": "EAEREFILNLKKKECKDRGFEYDG [NLN]", "Group": "fulfilled"}
{"Residues": "SCMASLWTAPLVMRTTNLDNRCKL [CDC25A]", "Group": "not fulfilled"}
{"Residues": "SEIEMAKAQRDYELKKAAYDIEVN [FLOT1]", "Group": "fulfilled"}
{"Residues": "APAFRLSLKAKVSDNMSHLMVDFA [FSD1]", "Group": "not fulfilled"}
{"Residues": "DVKARLEGEIATYRHLLEGEDCKL [KRT36]", "Group": "fulfilled"}
{"Residues": "DKAVEIEELTYIIKQDINSLNKQI [STX5]", "Group": "not fulfilled"}
{"Residues": "FGAVTNVKVIRDFTTNKCKGFGFV [ELAVL3]", "Group": "not fulfilled"}
{"Residues": "SPWDQEERPAQRDCSFPGLPRHQD [TRAF3IP2]", "Group": "fulfilled"}
{"Residues": "FLHVRKATRAMGLLNTLSLAFVGG [TMEM175]", "Group": "not fulfilled"}
{"Residues": "VSPGGVKLEISTKEVPVVHTETKT [EPB41L3]", "Group": "fulfilled"}
{"Residues": "LTADTKEVTASQEARGLRLSDLED [IRX6]", "Group": "fulfilled"}
{"Residues": "DRENGSDNLPSSAGSGDKPLSDPA [TPD52L2]", "Group": "fulfilled"}
{"Residues": "KVESGAWIGYEHTSFCGQQFILER [CRYBA1]", "Group": "not fulfilled"}
{"Residues": "ASHSLSPSEHVQGKSPVNMVTVAM [ZNF649]", "Group": "not fulfilled"}
{"Residues": "VNLQVATYSKFQPQSPDFLDITNP [UFD1]", "Group": "not fulfilled"}
{"Residues": "CSNLTPNVPNVCRMYCSDLLNPNL [SPACA3]", "Group": "not fulfilled"}
{"Residues": "KTKWTKEDGHRTSTSAVPNLFVPL [ADD1]", "Group": "not fulfilled"}
{"Residues": "PAGCMYIHGGVVNIHENKRTGSLF [KLHDC10]", "Group": "not fulfilled"}
{"Residues": "MTPAEAEMHFLENAKKLSMYGVDL [EPB41L3]", "Group": "not fulfilled"}
{"Residues": "QKEQGLSDNILSPVMNGGVQTWTQ [PDZK1]", "Group": "not fulfilled"}
{"Residues": "VRDSDDNSPLHIAALNNHPDIMNL [FEM1C]", "Group": "fulfilled"}
{"Residues": "VAVLEQEIKDKDQLVLRTKEAFDT [SASS6]", "Group": "fulfilled"}
{"Residues": "DLSKIIRTSSGTSREKTACAINKV [FAM98B]", "Group": "not fulfilled"}
{"Residues": "RKLLSPVSREENREDKATIKCETS [PPFIA4]", "Group": "fulfilled"}
{"Residues": "SNCCFTFSGHFLCTSSWDKNLKIW [WDR88]", "Group": "not fulfilled"}
{"Residues": "GYLVTKVVAVDRDSGQNAWLSYRL [PCDHGA10]", "Group": "not fulfilled"}
{"Residues": "DILEEEKIYAYPSNITSETGFRTI [TMEM192]", "Group": "not fulfilled"}
{"Residues": "DKVGLITLSDWAAAVESVLHLGLP [PPEF2]", "Group": "not fulfilled"}

###

test: protein stability index of a GFP-peptide fusion (GPS, HEK-293T) (PSI 1-6); higher = more stable; details: treatment: DMSO; c terminus: a fixed tail appended

{"Residues": "RYDPQTNEWRMVASMSKRRCGVGV [KLHL20]", "protein stability index": 2.71}
{"Residues": "NHQKDLFRRTDGRCLIWGRKPKVI [DHCR7]", "protein stability index": 2.66}
{"Residues": "HVAVEHQLPPASRCVLVFEQVRFL [SOAT2]", "protein stability index": 2.66}
{"Residues": "SNCLGIRDFAETHNCVDLMQAAEV [KLHL12]", "protein stability index": 4.05}
{"Residues": "TARMEMLIEELYAFMPARSQDPKK [CBY2]", "protein stability index": 2.66}
{"Residues": "RDLAARWKKLVLVDRNTRPGPQDP [ELOA2]", "protein stability index": 3.38}
{"Residues": "EASSSPPEGSQDRNTSWGVVQEPP [TLE6]", "protein stability index": 5.12}
{"Residues": "ELLDLKAGGFSIRNQKGEQVFRLA [MYORG]", "protein stability index": 2.32}
{"Residues": "TAVGAILAGGLCVGIYATNSAEAC [ACSBG2]", "protein stability index": 2.35}
{"Residues": "EDGHRTSTSAVPNLFVPLNTNPKE [ADD1]", "protein stability index": 4.89}
{"Residues": "IANPNSLHHVKTMWYPEIKHFCPR [RHOBTB2]", "protein stability index": 2.36}
{"Residues": "AASPQDLAGGYTSSLACHRALQDA [MNAT1]", "protein stability index": 4.21}
{"Residues": "LCATDFKFAMYPPSMIATGSVGAA [CCND2]", "protein stability index": 2.38}
{"Residues": "VFDNAIRAALISRRHLQFWKSHLR [RHOBTB2]", "protein stability index": 2.23}
{"Residues": "FGIGSEILKNLSQVAMRCRCSSMH [SAT1]", "protein stability index": 2.56}
{"Residues": "LDYSFGDHTSEAVRNLFGLDPSSG [PCDHGC5]", "protein stability index": 3.55}
{"Residues": "ACLLQLAEIQEACCEFLKRQLDPS [KLHL20]", "protein stability index": 2.32}
{"Residues": "PEAISPDLVKKIRDFHRKILTLPE [TRIM15]", "protein stability index": 2.51}
{"Residues": "TRGDADMYDLPKKEDALLYQSKGY [EMD]", "protein stability index": 4.19}
{"Residues": "DLKPTGEIPKQVKVKKLKNLKTLD [DENND6A]", "protein stability index": 4.24}
{"Residues": "SLRDKVLQLQKGSDTEAQCEVMQE [INTS3]", "protein stability index": 5.11}
{"Residues": "SPNRSLPSPGVLCGSARPKPYDPP [ATF4]", "protein stability index": 3.67}
{"Residues": "EITEELPSSQLMPVKKQLQGASWE [ZNF396]", "protein stability index": 4.09}
{"Residues": "TIPATLLVDHVGSKTFLCIGSSVM [SLC2A12]", "protein stability index": 2.69}
{"Residues": "AVEDGLQQFKQYSRHVTTRAALTY [M1AP]", "protein stability index": 3.14}
{"Residues": "SRVTDPVGDIVSFMHSFEEKYGRA [FAF2]", "protein stability index": 3.34}
{"Residues": "GVDHTKMSLHGASGGHERSRDRRR [BTBD10]", "protein stability index": 5.26}
{"Residues": "LSINRYERKKNLTLALEALVQLRG [ALG2]", "protein stability index": 2.25}
{"Residues": "FTAKHANKVKVLDAPVPDCLGVHC [FSD1]", "protein stability index": 2.75}
{"Residues": "DVKARLEGEIATYRHLLEGEDCKL [KRT36]", "protein stability index": 4.22}
{"Residues": "PKLFCPKNRSFDIDAIYSVIDDAK [PLD5]", "protein stability index": 3}
{"Residues": "FEKHRWPPVWYLKEEDHYQRARKE [RHOBTB2]", "protein stability index": 3.26}
{"Residues": "SFVCWSRGFMEMNGRGELVESLKR [AUP1]", "protein stability index": 2.36}
{"Residues": "NKTNKNSVSSCDQEHQSALEEAKQ [SMOC2]", "protein stability index": 5.13}
{"Residues": "EEVSSTVHIETFTTRHGEVGSALH [C10orf62]", "protein stability index": 4.43}
{"Residues": "PEEPLNGESYESCCPTSREAAVEA [FEM1A]", "protein stability index": 5.37}
{"Residues": "NQYATCRLCGRQVSRGPGVNVGTT [ZBED2]", "protein stability index": 2.39}
{"Residues": "SALAPSVFKQAKDKVSDGVTKSPE [MAP2]", "protein stability index": 5.44}
{"Residues": "SLEPFRPQQAPQDDGSQDPEVLDR [PWWP2B]", "protein stability index": 5.51}
{"Residues": "AQRHRGSAKDGGPQPPDAPQLVSS [PLEKHN1]", "protein stability index": 5.04}
{"Residues": "PRYITDVIDAEPFIRCSLQCRDLV [KLHL12]", "protein stability index": 2.25}
{"Residues": "GRLGKQCRERWHNHLNPEVKKSCW [MYBL2]", "protein stability index": 2.42}
{"Residues": "TDIDLQTIDNDIVSMEIFFKAWLH [M1AP]", "protein stability index": 2.39}
{"Residues": "SDKIGSTIDDTISKFRRKDREDSP [CLINT1]", "protein stability index": 5.1}
{"Residues": "YTDYVATRWYRAPELLVGDTQYGS [CDKL4]", "protein stability index": 2.56}
{"Residues": "VSPGGVKLEISTKEVPVVHTETKT [EPB41L3]", "protein stability index": 4.88}
{"Residues": "RAAAQQRRSFLNAHHRSGAQVFPE [GNAS]", "protein stability index": 3.53}
{"Residues": "NAVRSAMKSEEQKIKDARKGPLVP [KMT5A]", "protein stability index": 4.75}
{"Residues": "VSNTRLIAAATSVLKTRFSYAFPK [CCNC]", "protein stability index": 2.24}
{"Residues": "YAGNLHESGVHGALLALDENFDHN [PPFIA4]", "protein stability index": 3.26}
{"Residues": "ELLGVHPGASTEEVKRAFFSKSKE [DNAJC4]", "protein stability index": 3.8}
{"Residues": "EAFWAEWKDLTLSTRPEEGCSLHE [TCAP]", "protein stability index": 3.98}
{"Residues": "GYCSNQLAAKALLDQKKQDPRVQD [NET1]", "protein stability index": 4.89}
